# Tested on: HOP-62 NSCLC
# assayMethodText: NCI tumour cell line growth inhibition, 48 h
valueKind: TGI

CC(NCc1c(O)ccc2ccc(=O)oc12)C(=O)O (configuration not stated) | > 100 µM

Parameter requested: TGI. Apply to each item below.
1. Cc1ccc2cccc(OC(=O)Nc3cccc(C(F)(F)F)c3)c2n1
2. CC(=O)Nc1ccc(-c2nnc(SCC(=O)Nc3cccc(Cl)c3)o2)cc1
3. CCOC(=O)Cc1nnc2n(-c3ccccc3)c(=O)c3ccccc3n12

18.6 µM
36.2 µM
> 100 µM

Parameter requested: TGI. Apply to each item below.
1. CN(C)CCNC(=O)c1cc(Cl)cc2cc3ccccc3nc12
2. Cn1cc(-c2nc(-c3c[nH]c4ncccc34)cs2)c2ccccc21
3. CC(C)[C@@](O)(c1ccc2cc(OC(F)F)c(OC(F)F)cc2c1)c1cn[nH]n1
4. O/N=C(/CC(O)(C(F)(F)F)C(F)(F)F)c1ccccc1
5. COc1ccc2nc3c([N+](=O)[O-])ccc4c3c(c2c1)NCCN4CCN(C)C
6. CCc1n[nH]c(=O)n1/N=C(\C)c1ccc([N+](=O)[O-])cc1

["5.04 µM", "68.4 µM", "30.7 µM", "> 10 µM", "3.44 µM", "> 100 µM"]
